Reference source: patent US12570657B2

Quick reference for Cytotoxicity for Fibroblasts (GI20) BJ among some molecules
# Test system: skin fibroblasts BJ
# Run Description: Cytotoxicity for non-cancer cells, resazurine reduction assay, BJ
# Experimental Parameters: human, 72 h
Readout Name: Cytotoxicity for Fibroblasts (GI20) BJ

> print(dat)
                                   molecule  measured
1  CS(=O)(=O)O.c1ccc(CNc2ncnc3nc[nH]c23)cc1 [BAP mesylate, 6-benzylaminopurine mesylate]   >100 µM
2  CS(=O)(=O)O.Oc1ccccc1CNc1ncnc2nc[nH]c12 [oT mesylate, 6-(2-hydroxybenzylamino)purine mesylate]   >100 µM
3  CS(=O)(=O)O.c1coc(CNc2ncnc3nc[nH]c23)c1 [Kinetin mesylate, 6-furfurylaminopurine mesylate]   >100 µM

---

Items are presented alongside their recorded solubility.
# Run Description: Solubility in organic solvents (progressive solvent addition)
# Format: physicochemical
# Experimental Parameters: ethanol, organic solvent or mixture, thermodynamic from solid; read-out: Solubility in ethanol
Readout Name: solubility

> print(dat)
                                   compound  readout.name    measured
1  CS(=O)(=O)O.Oc1cccc(CNc2ncnc3nc[nH]c23)c1 [mT mesylate, 6-(3-hydroxybenzylamino)purine mesylate]    solubility   400 µg/mL
2  Oc1cccc(CNc2ncnc3nc[nH]c23)c1 [meta-topolin (mT), 6-(3-hydroxybenzylamino)purine]    solubility  5000 µg/mL

---

# Test system: skin fibroblasts BJ
# Run Description: Cytotoxicity for non-cancer cells, resazurine reduction assay, BJ
# Experimental Parameters: human, 72 h
# Procedure: It is used for viability testing of both bacterial and eukaryotic cells. […] Cultivation medium was DMEM with 10% FBS. Before the experiment, the cells were subcultured for 2 weeks. For the cytotoxicity evaluation, the cells were trypsinized and pipetted into 96 well plates (5000 cells per well in 80 microliters). […] IC50 values were calculated from dose response curves using drc library for R programming environment.
Listing: Cytotoxicity for Fibroblasts (GI20) BJ of selected compounds
Readout Name: Cytotoxicity for Fibroblasts (GI20) BJ (µM)

> print(dat)
                                   compound    system.under.test                            readout.name  unit.annotation  modifier  measured
1  c1ccc(CNc2ncnc3nc[nH]c23)cc1 [BAP, 6-benzylaminopurine]  skin fibroblasts BJ  Cytotoxicity for Fibroblasts (GI20) BJ               µM         =     137.5
2  Oc1ccccc1CNc1ncnc2nc[nH]c12 [ortho-topolin (oT), 6-(2-hydroxybenzylamino)purine]  skin fibroblasts BJ  Cytotoxicity for Fibroblasts (GI20) BJ               µM         =      98.7
3  Oc1cccc(CNc2ncnc3nc[nH]c23)c1 [meta-topolin (mT), 6-(3-hydroxybenzylamino)purine]  skin fibroblasts BJ  Cytotoxicity for Fibroblasts (GI20) BJ               µM         >       100
4  CS(=O)(=O)O.Oc1cccc(CNc2ncnc3nc[nH]c23)c1 [mT mesylate, 6-(3-hydroxybenzylamino)purine mesylate]  skin fibroblasts BJ  Cytotoxicity for Fibroblasts (GI20) BJ               µM         >       100

---

# maps each entry to its IC50
# Test system: MCF-7 (breast adenocarcinoma)
# Run Description: In vitro cytotoxicity, Calcein AM assay, MCF7
# Assay type: cell-based
# Experimental Parameters: 3-day Calcein-AM assay, mesylate
Readout Name: IC50

> print(dat)
                                   compound  measured
1  COc1ccccc1CNc1ncnc2nc[nH]c12.CS(=O)(=O)O [2MeOBAP mesylate, 6-(2-methoxybenzylamino)purine mesylate]  > 167 µM
2  CS(=O)(=O)O.Fc1cccc(CNc2ncnc3nc[nH]c23)c1 [3FBAP mesylate, 6-(3-fluorobenzylamino)purine mesylate]  > 167 µM
3  CS(=O)(=O)O.c1ccc(CNc2ncnc3nc[nH]c23)cc1 [BAP mesylate, 6-benzylaminopurine mesylate]  > 167 µM
